Readings of Log10LC50 for the listed compounds
- System: NCI-H322M
- Test name: NCI screening panel, NCI-H322M (Non-Small Cell Lung Cancer)
- Format: cell-based, human
# output: bare number, no unit

Compound: CC(C)C[C@H](NC(=O)[C@H](COC(F)F)NC(=O)CN1CCOCC1)C(=O)N[C@@H](Cc1ccccc1)C(=O)N[C@@H](Cc1ccccc1)C(=O)[C@@]1(C)CO1 [Example 3]
Target desc: NCI-H322M
Log10LC50: −5.14
//
Compound: CC(C)C[C@H](NC(=O)[C@H](COC(F)F)NC(=O)[C@H](COC(F)F)NC(=O)[C@H](COC(F)F)NC(=O)CN1CCOCC1)C(=O)[C@@]1(C)CO1 [Example 17]
Target desc: NCI-H322M
Log10LC50: −4.92

Now for a further compound.
Q: If you can, please state the reported Log10LC50 value of CC(C)C[C@H](NC(=O)[C@H](COC(F)F)NC(=O)CN1CCOCC1)C(=O)N[C@@H](COC(F)F)C(=O)N[C@@H](CC(C)C)C(=O)[C@@]1(C)CO1 [Example 1] .
Ans: −4.86

----------
- Tested on: RPMI-8226
- Test name: NCI screening panel, RPMI-8226 (Leukemia)
- Assay type: cell-based, human
Parameter Log10TGI50: see the listing below.

Some solved cases for reference:
Smiles str: CC(C)C[C@H](NC(=O)[C@H](Cc1ccccc1)NC(=O)[C@H](COC(F)F)NC(=O)[C@H](COC(F)F)NC(=O)CN1CCOCC1)C(=O)[C@@]1(C)CO1
Target desc: RPMI-8226
Log10TGI50: −7.02
//
Smiles str: CC(C)C[C@H](NC(=O)[C@H](COC(F)F)NC(=O)CN1CCOCC1)C(=O)N[C@@H](COC(F)F)C(=O)N[C@@H](CC(C)C)C(=O)[C@@]1(C)CO1
Target desc: RPMI-8226
Log10TGI50: −7.05

Here is another compound to look at.
Q: Name the recorded Log10TGI50 for CC(C)C[C@H](NC(=O)[C@H](COC(F)F)NC(=O)[C@H](COC(F)F)NC(=O)[C@H](CCc1ccccc1)NC(=O)CN1CCOCC1)C(=O)[C@@]1(C)CO1 .
Ans: −7.04

----------
- Test system: ACHN
- Test name: NCI screening panel, ACHN (Renal Cancer)
- Type: cell-based, human
- Procedure: Representative compounds of Formula I were screened using the National Cancer Institute (NCI) screening panel, which consists of a panel of human tumor cell lines, representing leukemia, melanoma, and cancers of the lung, colon, ovary, breast, prostate and renal system. […] Three dose response parameters are calculated for each experimental agent. […] The drug concentration resulting in total growth inhibition (TGI) is calculated from Ti=Tz. […]
Quantity name: Log10GI50

// below: answered compounds
Smiles str: CC(C)C[C@H](NC(=O)[C@H](COC(F)F)NC(=O)[C@H](COC(F)F)NC(=O)[C@H](CCc1ccccc1)NC(=O)CN1CCOCC1)C(=O)[C@@]1(C)CO1
Log10GI50: −6.31
--
Smiles str: CC(C)C[C@H](NC(=O)[C@H](COC(F)F)NC(=O)CN1CCOCC1)C(=O)N[C@@H](Cc1ccccc1)C(=O)N[C@@H](CC(C)C)C(=O)[C@@]1(C)CO1
Log10GI50: −6.71
--
Smiles str: CC(C)C[C@H](NC(=O)[C@H](COC(F)F)NC(=O)CN1CCOCC1)C(=O)N[C@@H](COC(F)F)C(=O)N[C@@H](CC(C)C)C(=O)[C@@]1(C)CO1
Log10GI50: −6.34
--
Smiles str: CC(C)C[C@H](NC(=O)[C@H](COC(F)F)NC(=O)CN1CCOCC1)C(=O)N[C@@H](COC(F)F)C(=O)N[C@@H](Cc1ccccc1)C(=O)[C@@]1(C)CO1
Log10GI50: −6.32

Turning now to a further record.
Q: Which value of Log10GI50 has been reported for CC(C)C[C@H](NC(=O)[C@H](COC(F)F)NC(=O)CN1CCOCC1)C(=O)N[C@@H](Cc1ccccc1)C(=O)N[C@@H](Cc1ccccc1)C(=O)[C@@]1(C)CO1 in the records?
Ans: −7.13

----------
- Test system: A549/ATCC
- Test name: NCI screening panel, A549/ATCC (Non-Small Cell Lung Cancer)
- Type: cell-based, human
Quantity name: Log10TGI50

Record excerpt, results attached:
Smiles str: CC(C)C[C@H](NC(=O)[C@H](COC(F)F)NC(=O)CN1CCOCC1)C(=O)N[C@@H](Cc1ccccc1)C(=O)N[C@@H](Cc1ccccc1)C(=O)[C@@]1(C)CO1
Quantity name: Log10TGI50
Test result: >−4.00

Smiles str: CC(C)C[C@H](NC(=O)[C@H](COC(F)F)NC(=O)[C@H](COC(F)F)NC(=O)[C@H](CCc1ccccc1)NC(=O)CN1CCOCC1)C(=O)[C@@]1(C)CO1
Quantity name: Log10TGI50
Test result: >−4.00

# input for lookup
Q: Recorded Log10TGI50 for CC(C)C[C@H](NC(=O)[C@H](Cc1ccccc1)NC(=O)[C@H](COC(F)F)NC(=O)[C@H](COC(F)F)NC(=O)CN1CCOCC1)C(=O)[C@@]1(C)CO1 , please?
Ans: >−4.00

Values were extracted from patent US20150218212A1.
